The entries below are paired with their reported pEC50.
Test system: HBV (hepatitis B virus) in HepG2.2.15 cells
methodSummary: Cell-based anti-viral activity assay (HBV DNA in supernatant by quantitative PCR)
studyConditions: 120 h, anti-HBV activity, HepG2.2.15 cells, 5 days, read-out: EC50 (HepG2.2.15)
By convention, pEC50 is the negative base-10 log of a molar concentration.

# count of solved cases: 2
In [3]: df
Out[3]:
                          compoundstructure                             targetofassay  resultnumber
0  CCOC(=O)C1=C(CN2CCN3C(=O)N(C45CC(NS(N)(=O)=O)(C4)C5)C[C@@H]3C2)NC(c2nccs2)=N[C@H]1c1cccc(F)c1C  HBV (hepatitis B virus) in HepG2.2.15 cells          7.82
1  CCOC(=O)C1=C(CN2CCN3C(=O)N(C45CC(COC)(C4)C5)C[C@@H]3[C@H]2C(=O)O)NC(c2nccs2)=N[C@H]1c1cccc(F)c1C  HBV (hepatitis B virus) in HepG2.2.15 cells          7.74

// moving on: another record for pEC50
Which measured pEC50 value corresponds to `CCOC(=O)C1=C(CN2CCN3C(=O)N(C45CCC(C(=O)O)(C4)C5)C[C@@H]3C2)NC(c2nccs2)=N[C@H]1c1cccc(F)c1C` ?
7.80

Origin of the recorded values: patent US20240166649A1
